- Organism: Rattus norvegicus
- ASSAY_OVERVIEW: The distribution of the 131 I-labeled compound at 5 min was evaluated in rat lung as Percent of injected dose per gram in the organ
- Assay type: ADME, organism-based
- CONDITION_SET: in vivo
I'd be grateful if you could share measured Dose for these entries.
Number only, in %; omit the unit.

Exam item: Provide Dose value for the following compound: CNC(C)Cc1cc(OC)c(I)cc1OC (stereo not drawn)
Marked response: 5.9

Exam item: Report Dose for COc1cc(CC(C)NN)c(OC)cc1I (stereo not drawn)
Marked response: 0.87

Exam item: Provide only the value of recorded Dose for COc1cc(CC(C)NCCCN(C)C)c(OC)cc1I (stereo not drawn)
Marked response: 3.8

Exam item: Please indicate Dose recorded for COc1cc(CC(C)N(C)C(C)C)c(OC)cc1I (stereo not drawn)
Marked response: 0.53

Exam item: Tell me Dose reported for COc1cc(CC(C)NC(C)C)c(OC)cc1I (stereo not drawn)
Marked response: 7.7

Exam item: Consider the compound CCCCCCNC(C)Cc1cc(OC)c(I)cc1OC (stereo not drawn) and give its recorded Dose.
Marked response: 7.5

Exam item: Given COc1cc(CC(C)NCc2ccccc2)c(OC)cc1I (stereo not drawn) , respond with its Dose.
Marked response: 8.3

Exam item: Quote Dose reported for CCN(CC)C(C)Cc1cc(OC)c(I)cc1OC (stereo not drawn) please.
Marked response: 2

Exam item: Supply Dose value. Item: COc1cc(CC(C)N)c(OC)cc1I (stereo not drawn)
Marked response: 3.3

Exam item: For the compound COc1cc(CC(C)NCC2CC2)c(OC)cc1I (stereo not drawn) , give its reported Dose.
Marked response: 7.8

Exam item: Name the recorded Dose of the item COc1cc(CC(C)N(C)Cc2ccccc2)c(OC)cc1I (stereo not drawn) in your answer.
Marked response: 0.75

Exam item: State its Dose for this compound: COc1cc(CC(C)NCC#N)c(OC)cc1I (stereo not drawn)
Marked response: 2.6

Exam item: Identify Dose associated with the compound COc1cc(CC(C)N(C)C)c(OC)cc1I (stereo not drawn)
Marked response: 3.1
